Study System: CD3ε homodimer protein (human, UniProt P07766 23-126, limits assumed)
Sequence (P07766 23-126 limits assumed): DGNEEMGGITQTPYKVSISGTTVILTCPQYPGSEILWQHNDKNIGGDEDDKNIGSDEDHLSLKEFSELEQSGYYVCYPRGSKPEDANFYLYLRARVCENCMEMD
Assay Explanation: SPR, immobilized CD3ε homodimer;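 also: biacore T200 surface plasmon resonance at 25 °C, antibody variants flowed as analytes over amine-coupled CD3ε homodimer on a CM4 chip, variant binding amount divided by that of GLS3000 antibody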
Kindly supply the reported ratio of amounts bound (vs GLS3000) values for the records listed here.
Lab note: record just the number, no unit beside it.

Kindly note the recorded ratio of amounts bound (vs GLS3000) for GLS3000 Y96E (antibody, name in Kabat numbering, V domains shown, one-arm format as m2) VH: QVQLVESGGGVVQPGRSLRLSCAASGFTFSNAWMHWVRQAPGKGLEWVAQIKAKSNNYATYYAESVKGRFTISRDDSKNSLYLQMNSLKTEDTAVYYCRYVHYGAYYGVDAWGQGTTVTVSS VL: DIVMTQSPLSLPVTPGEPASISCRSSQSLVHSNRNTYLHWYQQKPGQAPRLLIYKVSNRFSGVPDRFSGSGSGTDFTLKISRVEAEDVGVYYCGQGTQVPETFGQGTKLEIK , which is 0.17

Kindly note the recorded ratio of amounts bound (vs GLS3000) for GLS3000 R54Q (antibody, name in Kabat numbering, V domains shown, one-arm format as m2) VH: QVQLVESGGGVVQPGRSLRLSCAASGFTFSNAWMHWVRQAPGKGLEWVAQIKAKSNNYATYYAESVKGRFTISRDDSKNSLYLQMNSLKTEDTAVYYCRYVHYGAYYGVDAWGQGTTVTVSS VL: DIVMTQSPLSLPVTPGEPASISCRSSQSLVHSNRNTYLHWYQQKPGQAPRLLIYKVSNQFSGVPDRFSGSGSGTDFTLKISRVEAEDVGVYYCGQGTQVPYTFGQGTKLEIK , which is 0.68

Kindly note the recorded ratio of amounts bound (vs GLS3000) for GLS3000 Q90D (antibody, name in Kabat numbering, V domains shown, one-arm format as m2) VH: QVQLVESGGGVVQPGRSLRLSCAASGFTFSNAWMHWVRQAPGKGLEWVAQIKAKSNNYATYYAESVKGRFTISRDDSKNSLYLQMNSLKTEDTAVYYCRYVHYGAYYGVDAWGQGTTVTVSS VL: DIVMTQSPLSLPVTPGEPASISCRSSQSLVHSNRNTYLHWYQQKPGQAPRLLIYKVSNRFSGVPDRFSGSGSGTDFTLKISRVEAEDVGVYYCGDGTQVPYTFGQGTKLEIK , which is 0.19

Kindly note the recorded ratio of amounts bound (vs GLS3000) for GLS3000 N53A (antibody, name in Kabat numbering, V domains shown, one-arm format as m2) VH: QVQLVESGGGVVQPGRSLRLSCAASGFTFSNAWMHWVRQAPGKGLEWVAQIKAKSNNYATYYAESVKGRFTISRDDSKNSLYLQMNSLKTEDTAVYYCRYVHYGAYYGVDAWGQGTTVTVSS VL: DIVMTQSPLSLPVTPGEPASISCRSSQSLVHSNRNTYLHWYQQKPGQAPRLLIYKVSARFSGVPDRFSGSGSGTDFTLKISRVEAEDVGVYYCGQGTQVPYTFGQGTKLEIK , which is 0.61

Kindly note the recorded ratio of amounts bound (vs GLS3000) for GLS3000 S27eR (antibody, name in Kabat numbering, V domains shown, one-arm format as m2) VH: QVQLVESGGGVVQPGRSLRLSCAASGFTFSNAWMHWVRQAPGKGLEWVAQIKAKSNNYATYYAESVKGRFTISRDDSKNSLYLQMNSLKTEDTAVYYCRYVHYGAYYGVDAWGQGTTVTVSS VL: DIVMTQSPLSLPVTPGEPASISCRSSQSLVHRNRNTYLHWYQQKPGQAPRLLIYKVSNRFSGVPDRFSGSGSGTDFTLKISRVEAEDVGVYYCGQGTQVPYTFGQGTKLEIK , which is 1.58
